Reference for the values: patent US20160130278A1

# ASSAY TARGET: human type 1 glycine transporter (GlyT1) (Homo sapiens)
# Construct: T98G cells (glioma cells) expressing human type 1 glycine transporter (GlyT1) were used
# MEASUREMENT NOTES: Glycine uptake inhibition experiment ([3H]glycine uptake)
# Type: cell-based
# PARTICULARS: GlyT1
PROPERTY MEASURED: IC50 (nM)

See these solved cases before continuing.
{"columns": ["COMPOUND", "IC50, nM"],
 "data": [
  ["O=C(NC(c1cccc(-c2cncnc2)c1)C1(O)CCCC1)c1nccc(C(F)(F)F)c1Cl (stereo not shown) [Compound 18]", 92],
  ["O=C(NC(c1cccc(F)c1Cl)[C@]1(O)CC[C@@H](F)CC1)c1ccc(C(F)(F)F)cc1-n1cccn1 (single isomer, unassigned) [Compound 390]", 130]
]}

A = O=C(NC(c1cccc(Cl)c1)C1(O)CCC(F)(F)CC1)c1nccc(C(F)(F)F)c1Cl (single isomer, unassigned) [Compound 166]
B = O=C(NC(c1cccc(-c2cccnc2)c1)C1(O)CCCCC1)c1nccc(C(F)(F)F)c1Cl (stereo not shown) [Compound 26]
Q. Between A and B , whose recorded IC50 is greater? Pick one; state its label.
A. A

* * *

# ASSAY TARGET: human type 1 glycine transporter (GlyT1) (Homo sapiens, UniProt P48067)
# Construct: T98G cells (glioma cells) expressing human type 1 glycine transporter (GlyT1) were used
# MEASUREMENT NOTES: Glycine uptake inhibition experiment ([3H]glycine uptake)
# Type: cell-based
# PARTICULARS: GlyT1
PROPERTY MEASURED: IC50 (µM)

Recorded results for 2 molecules are shown here.
{"columns": ["MOLECULE", "IC50 [µM]"],
 "data": [
  ["O=C(NC(c1cccc(F)c1Cl)[C@]1(O)CC[C@@H](F)CC1)c1nsc(Cl)c1Cl (single isomer, unassigned)", 1.1],
  ["O=C(NC(c1cccc(F)c1)C1(O)CCCC1)c1cccc(C(F)(F)F)c1Cl (single isomer, unassigned) [Compound 73]", 0.22]
]}

1 = CCn1cc(-c2cccc(C(NC(=O)c3nccc(C(F)(F)F)c3Cl)C3(O)CCCCC3)c2)cn1 (stereo not drawn)
2 = O=C(NC(c1ccc(F)cc1)C1(O)CCCC1)c1nccc(C(F)(F)F)c1Cl (stereo not drawn) [Compound 39]
Q. Lab note: record which item had the higher IC50, 1 or 2 . Give the label under which the chosen entry appears.
A. 2
(2: 1 µM, 1: 0.0085 µM)

P = O=C(NC(c1cccc(-c2cn[nH]c2)c1)C1(O)CCCC1)c1nccc(C(F)(F)F)c1Cl (stereo not drawn)
Q = CS(=O)(=O)c1ccccc1C(=O)NC(c1cccc(F)c1Cl)[C@]1(O)CC[C@@H](F)CC1 (single isomer, unassigned)
R = O=C(NC(c1cccc(Cl)n1)[C@]1(O)CC[C@@H](F)CC1)c1ccc(C(F)(F)F)nc1Cl (single isomer, unassigned)
Q. Give the ascending ranking of the items by reported IC50. Enter labels, ranked according to the request.
A. P, R, Q
(P: 0.014 µM, R: 0.14 µM, Q: 2.1 µM)

I = O=C(NC(c1cccc(Cl)c1)[C@]1(O)CC[C@@H](F)CC1)c1ccnc(C(F)(F)F)c1Cl (stereo partly drawn)
II = CCn1cc(-c2cccc(C(NC(=O)c3ccc(Cl)c(Cl)c3)C3(O)CCC(F)(F)CC3)c2)cn1 (stereo not drawn)
Q. In the pair I and II , the larger recorded IC50 belongs to which? Reply briefly: the label of your chosen item.
A. II

I = O=C(NC(c1cccc(F)c1Cl)[C@]1(O)CC[C@@H](F)CC1)c1cnc(Cl)cc1-n1nccn1 (single isomer, unassigned)
II = CC(C)n1cc(-c2cccc(C(NC(=O)c3nccc(C(F)(F)F)c3Cl)C3(O)CCC(F)(F)CC3)c2)cn1 (single isomer, unassigned) [Compound 133]
III = O=C(NC(c1ccccc1Cl)[C@]1(O)CC[C@@H](F)CC1)c1ccc(C(F)(F)F)nc1Cl (single isomer, unassigned)
Q. Falling order of IC50, please. Labels, requested order.
A. II, I, III
